- Organism: Rattus norvegicus
- Method: Open TG-GATES - Regimen: Single
- Assay type: toxicity, organism-based, Sprague-Dawley
- Design: regimen Single, gender Male, age 6 weeks
- Experimental conditions: in vivo, po, 0 mg/kg, 3 h, tissue Plasma, route gavage, dose level Control
Reported GLC values follow for various compounds

# Test smiles, Unit, GLC
data = [
    ("O=C(OC[C@H]1O[C@@H](OC(=O)c2cc(O)c(O)c(OC(=O)c3cc(O)c(O)c(O)c3)c2)[C@H](OC(=O)c2cc(O)c(O)c(OC(=O)c3cc(O)c(O)c(O)c3)c2)[C@@H](OC(=O)c2cc(O)c(O)c(OC(=O)c3cc(O)c(O)c(O)c3)c2)[C@@H]1OC(=O)c1cc(O)c(O)c(OC(=O)c2cc(O)c(O)c(O)c2)c1)c1cc(O)c(O)c(OC(=O)c2cc(O)c(O)c(O)c2)c1", "mg/dL", 194.4),
    ("CCCc1cc(=O)[nH]c(=S)[nH]1", "mg/dL", 192.6),
    ("COC(=O)C1=C(C)NC(C)=C(C(=O)OC)C1c1ccccc1[N+](=O)[O-]", "mg/dL", 178.4),
    ("CC(C)NNC(=O)c1ccncc1", "mg/dL", 190.2),
]
